Collected inhibition values appear next to each entry.
MEASURED_TARGET: Aldo-keto reductase family 1 member B1 (Bos taurus)
ASSAY_COMMENT: In vitro % decrease of aldose reductase measured in isolated partially purified bovine lens preparations at 10e-7 M concentration

{"COMPOUND": "CCOc1ccc2c(C(F)(F)F)c(OC)ccc2c1C(=S)N(C)CC(=O)O", "UOM": "%", "inhibition": 87}
{"COMPOUND": "COc1ccc2c(C(=S)N(C)CC(=O)O)cc(Br)cc2c1Br", "UOM": "%", "inhibition": 94}
{"COMPOUND": "COc1ccc2c(C(=O)N(C)CC(=O)O)cc(Cc3ccccc3)cc2c1Br", "UOM": "%", "inhibition": 74}
{"COMPOUND": "COc1ccc2c(C(F)(F)F)c(OC)ccc2c1C(=S)N(C)CC(=O)O", "UOM": "%", "inhibition": 91}
{"COMPOUND": "COc1ccc2c(C(=O)N(C)CC(=O)O)cc(C)cc2c1Br", "UOM": "%", "inhibition": 63}
{"COMPOUND": "CCCCc1ccc2c(C(F)(F)F)c(OC)ccc2c1C(=O)N(C)CC(=O)O", "UOM": "%", "inhibition": 23}
{"COMPOUND": "O=C(O)Cc1nn(Cc2nc3cc(C(F)(F)F)ccc3s2)c(=O)c2ccccc12 [ZOPOLRESTAT]", "UOM": "%", "inhibition": 89}
{"COMPOUND": "COc1ccc2c(C(=O)N(C)CC(=O)O)c(Cl)ccc2c1C(F)(F)F", "UOM": "%", "inhibition": 63}
{"COMPOUND": "COc1ccc2c(C(=S)N(C)CC(=O)O)cc(Cc3ccccc3)cc2c1Br", "UOM": "%", "inhibition": 84}
{"COMPOUND": "COc1ccc2c(C(=O)N(C)CC(=O)O)c(C(F)(F)F)ccc2c1C(F)(F)F", "UOM": "%", "inhibition": 32}
{"COMPOUND": "CCOC(=O)N(CC(=O)O)C(=O)c1c(Cl)ccc2c(C(F)(F)F)c(OC)ccc12", "UOM": "%", "inhibition": 79}
{"COMPOUND": "CCOC(=O)N(CC(=O)O)C(=O)c1cc(Br)cc2c(Br)c(OC)ccc12", "UOM": "%", "inhibition": 84}
{"COMPOUND": "COc1ccc2c(C(=S)N(C)CC(=O)O)c(OCc3ccccc3)ccc2c1C(F)(F)F", "UOM": "%", "inhibition": 84}
{"COMPOUND": "CCOC(=O)N(CC(=O)O)C(=O)c1c(Br)ccc2c(C(F)(F)F)c(OC)ccc12", "UOM": "%", "inhibition": 76}
{"COMPOUND": "COc1c(C)cc2c(C(=O)N(C)CC(=O)O)cccc2c1Br", "UOM": "%", "inhibition": 20}

----------
MEASURED_TARGET: UniProtKB P16116
ASSAY_COMMENT: In vitro % decrease of aldose reductase measured in isolated partially purified bovine lens preparations at 10e-7 M concentration
READOUT: inhibition

{"COMPOUND_STRUCTURE": "CCOC(=O)N(CC(=O)O)C(=O)c1c(F)ccc2c(C(F)(F)F)c(OC)ccc12", "MEASURED_TARGET": "UniProtKB P16116", "RESULT": "87%"}
{"COMPOUND_STRUCTURE": "COc1ccc2c(C(F)(F)F)c(OC)ccc2c1C(=O)N(C)CC(=O)O", "MEASURED_TARGET": "UniProtKB P16116", "RESULT": "62%"}
{"COMPOUND_STRUCTURE": "COc1ccc2c(C(=O)N(C)CC(=O)O)c(SC)ccc2c1C(F)(F)F", "MEASURED_TARGET": "UniProtKB P16116", "RESULT": "69%"}
{"COMPOUND_STRUCTURE": "COc1ccc2c(C(=O)N(C)CC(=O)O)c(C(C)(C)C)ccc2c1C(F)(F)F", "MEASURED_TARGET": "UniProtKB P16116", "RESULT": "6%"}
{"COMPOUND_STRUCTURE": "COc1ccc2c(C(=S)N(C)CC(=O)O)cc(-c3ccccc3)cc2c1Br", "MEASURED_TARGET": "UniProtKB P16116", "RESULT": "81%"}
{"COMPOUND_STRUCTURE": "COc1ccc2c(C(=O)N(C)CC(=O)O)cc(-c3ccccc3)cc2c1Br", "MEASURED_TARGET": "UniProtKB P16116", "RESULT": "83%"}
{"COMPOUND_STRUCTURE": "COc1ccc2c(C(=S)N(C)CC(=O)O)c(Oc3ccccc3)ccc2c1C(F)(F)F", "MEASURED_TARGET": "UniProtKB P16116", "RESULT": "89%"}
{"COMPOUND_STRUCTURE": "COc1c(C)cc2c(C(=S)N(C)CC(=O)O)cccc2c1Br", "MEASURED_TARGET": "UniProtKB P16116", "RESULT": "8%"}
{"COMPOUND_STRUCTURE": "CCOc1ccc2c(C(F)(F)F)c(OC)ccc2c1C(=O)N(C)CC(=O)O", "MEASURED_TARGET": "UniProtKB P16116", "RESULT": "65%"}
{"COMPOUND_STRUCTURE": "COc1ccc2c(C(=O)N(C)CC(=O)O)c(OCC(F)(F)F)ccc2c1C(F)(F)F", "MEASURED_TARGET": "UniProtKB P16116", "RESULT": "67%"}
